Tested on: SK-MES-1
Test: relative viability (nuclei count vs DMSO), 5 days (fraction); higher = more cells survive
Conditions: first compound 0.04 µM

compound	relative viability
Clc1ccc(Nc2nnc(Cc3ccncc3)c3ccccc23)cc1 [Vatalanib] + Cc1nc(NC(=O)N2CCC[C@H]2C(N)=O)sc1-c1ccnc(C(C)(C)C(F)(F)F)c1 [Alpelisib] (partner 2 µM)	1.11
COc1cc(N2CCC(C(N)=O)CC2)ccc1Nc1nc(N)c(Cl)c(Nc2ccccc2S(=O)(=O)C(C)C)n1 [HG-5-88-01] + CCNC(=O)c1noc(-c2cc(C(C)C)c(O)cc2O)c1-c1ccc(CN2CCOCC2)cc1 [Luminespib] (partner 0.01 µM)	0.843
C[C@@H]1CN(CC(=O)Nc2ccc3c(c2)Cc2cccc(-c4cc(=O)cc(N5CCOCC5)o4)c2S3)C[C@H](C)O1 + O=C(CCCCCCC(=O)Nc1ccccc1)NO [Vorinostat] (partner 1 µM)	1.19

###

System: NCI-H650
Experiment: relative viability (nuclei count vs DMSO), 5 days (fraction); higher = more cells survive
Settings: first compound 4 µM
Each item that follows carries a reported relative viability.
measurementKind: relative viability

molecule	tgt	measurementKind	experimentalResult
C[C@@H]1CN(CC(=O)Nc2ccc3c(c2)Cc2cccc(-c4cc(=O)cc(N5CCOCC5)o4)c2S3)C[C@H](C)O1 + CS(=O)(=O)N1CCN(Cc2cc3nc(-c4cccc5[nH]ncc45)nc(N4CCOCC4)c3s2)CC1 [Pictilisib] (partner 1 µM)	NCI-H650	relative viability	0.806
Clc1ccc(Nc2nnc(Cc3ccncc3)c3ccccc23)cc1 [Vatalanib] + O=C(c1cc(Cc2n[nH]c(=O)c3ccccc23)ccc1F)N1CCN(C(=O)C2CC2)CC1 [Olaparib] (partner 8 µM)	NCI-H650	relative viability	0.361
C[C@@H]1CN(CC(=O)Nc2ccc3c(c2)Cc2cccc(-c4cc(=O)cc(N5CCOCC5)o4)c2S3)C[C@H](C)O1 + CCNC(=O)c1noc(-c2cc(C(C)C)c(O)cc2O)c1-c1ccc(CN2CCOCC2)cc1 [Luminespib] (partner 0.01 µM)	NCI-H650	relative viability	0.738
Clc1ccc(Nc2nnc(Cc3ccncc3)c3ccccc23)cc1 [Vatalanib] + O=C(CCCCCCC(=O)Nc1ccccc1)NO [Vorinostat] (partner 1 µM)	NCI-H650	relative viability	0.443
COc1cc(N2CCC(C(N)=O)CC2)ccc1Nc1nc(N)c(Cl)c(Nc2ccccc2S(=O)(=O)C(C)C)n1 [HG-5-88-01] + CCNC(=O)c1noc(-c2cc(C(C)C)c(O)cc2O)c1-c1ccc(CN2CCOCC2)cc1 [Luminespib] (partner 0.01 µM)	NCI-H650	relative viability	0.772

###

Test system: NCI-H2009
Assay: relative viability (nuclei count vs DMSO), 5 days (fraction); higher = more cells survive
Details: first compound 0.1265 µM
Rule: relative viability below 0.6 gives MET. Equal to or above 0.6 gives NOT MET.

compound	qualitativeLabel
C[C@@H]1CN(CC(=O)Nc2ccc3c(c2)Cc2cccc(-c4cc(=O)cc(N5CCOCC5)o4)c2S3)C[C@H](C)O1 + COc1cccc2cc(-c3nc([C@H]4CC[C@H](C(=O)O)CC4)n4ncnc(N)c34)[nH]c12 [OSI-027] (partner 0.5 µM)	NOT MET
Clc1ccc(Nc2nnc(Cc3ccncc3)c3ccccc23)cc1 [Vatalanib] + CC(=O)Nc1cccc(-n2c(=O)n(C3CC3)c(=O)c3c(Nc4ccc(I)cc4F)n(C)c(=O)c(C)c32)c1 [Trametinib] (partner 0.02 µM)	MET
C[C@@H]1CN(CC(=O)Nc2ccc3c(c2)Cc2cccc(-c4cc(=O)cc(N5CCOCC5)o4)c2S3)C[C@H](C)O1 + O=C(c1cc(Cc2n[nH]c(=O)c3ccccc23)ccc1F)N1CCN(C(=O)C2CC2)CC1 [Olaparib] (partner 8 µM)	NOT MET
Clc1ccc(Nc2nnc(Cc3ccncc3)c3ccccc23)cc1 [Vatalanib] + CC1(C)CCC(c2ccc(Cl)cc2)=C(CN2CCN(c3ccc(C(=O)NS(=O)(=O)c4ccc(N[C@H](CCN5CCOCC5)CSc5ccccc5)c(S(=O)(=O)C(F)(F)F)c4)cc3)CC2)C1 [Navitoclax] (partner 0.5 µM)	NOT MET
COc1cc(N2CCC(C(N)=O)CC2)ccc1Nc1nc(N)c(Cl)c(Nc2ccccc2S(=O)(=O)C(C)C)n1 [HG-5-88-01] + CS(=O)(=O)CCNCc1ccc(-c2ccc3ncnc(Nc4ccc(OCc5cccc(F)c5)c(Cl)c4)c3c2)o1 [Lapatinib] (partner 2 µM)	NOT MET
C[C@@H]1CN(CC(=O)Nc2ccc3c(c2)Cc2cccc(-c4cc(=O)cc(N5CCOCC5)o4)c2S3)C[C@H](C)O1 + CC(C)C[C@H](NC(=O)[C@H](Cc1ccccc1)NC(=O)c1cnccn1)B(O)O [Bortezomib] (partner 0.002 µM)	NOT MET
C[C@@H]1CN(CC(=O)Nc2ccc3c(c2)Cc2cccc(-c4cc(=O)cc(N5CCOCC5)o4)c2S3)C[C@H](C)O1 + C[C@@H](Oc1cc(-c2cnn(C3CCNCC3)c2)cnc1N)c1c(Cl)ccc(F)c1Cl [Crizotinib] (partner 1 µM)	NOT MET
Clc1ccc(Nc2nnc(Cc3ccncc3)c3ccccc23)cc1 [Vatalanib] + COc1cccc2cc(-c3nc([C@H]4CC[C@H](C(=O)O)CC4)n4ncnc(N)c34)[nH]c12 [OSI-027] (partner 0.5 µM)	MET

###

Tested on: NCI-H1299
Assay: relative viability (nuclei count vs DMSO), 5 days (fraction); higher = more cells survive
Conditions: first compound 0.1265 µM
measurementKind: relative viability

compound	tgt	experimentalResult
C[C@@H]1CN(CC(=O)Nc2ccc3c(c2)Cc2cccc(-c4cc(=O)cc(N5CCOCC5)o4)c2S3)C[C@H](C)O1 + CS(=O)(=O)CCNCc1ccc(-c2ccc3ncnc(Nc4ccc(OCc5cccc(F)c5)c(Cl)c4)c3c2)o1 [Lapatinib] (partner 2 µM)	NCI-H1299	0.956
COc1cc(N2CCC(C(N)=O)CC2)ccc1Nc1nc(N)c(Cl)c(Nc2ccccc2S(=O)(=O)C(C)C)n1 [HG-5-88-01] + O=C(c1cc(Cc2n[nH]c(=O)c3ccccc23)ccc1F)N1CCN(C(=O)C2CC2)CC1 [Olaparib] (partner 8 µM)	NCI-H1299	0.972
COc1cc(N2CCC(C(N)=O)CC2)ccc1Nc1nc(N)c(Cl)c(Nc2ccccc2S(=O)(=O)C(C)C)n1 [HG-5-88-01] + CS(=O)(=O)N1CCN(Cc2cc3nc(-c4cccc5[nH]ncc45)nc(N4CCOCC4)c3s2)CC1 [Pictilisib] (partner 1 µM)	NCI-H1299	0.724

###

Test system: HCC-44
Experiment: relative viability (nuclei count vs DMSO), 5 days (fraction); higher = more cells survive
Details: first compound 0.3162 µM
Each item that follows carries a reported relative viability.

compound	relative viability
CC(C)Oc1cc(Nc2nc(N[C@@H](C)c3ccc(F)cn3)ncc2Cl)n[nH]1 [AZ23] + Nc1nc2[nH]cc(CCc3ccc(C(=O)N[C@@H](CCC(=O)O)C(=O)O)cc3)c2c(=O)[nH]1 [Pemetrexed] (partner 0.2 µM)	0.698
CC(C)Oc1cc(Nc2nc(N[C@@H](C)c3ccc(F)cn3)ncc2Cl)n[nH]1 [AZ23] + Cc1nc(NC(=O)N2CCC[C@H]2C(N)=O)sc1-c1ccnc(C(C)(C)C(F)(F)F)c1 [Alpelisib] (partner 2 µM)	0.871
CC(C)Oc1cc(Nc2nc(N[C@@H](C)c3ccc(F)cn3)ncc2Cl)n[nH]1 [AZ23] + CC(=O)Nc1cccc(-n2c(=O)n(C3CC3)c(=O)c3c(Nc4ccc(I)cc4F)n(C)c(=O)c(C)c32)c1 [Trametinib] (partner 0.02 µM)	1.05
CC(C)Oc1cc(Nc2nc(N[C@@H](C)c3ccc(F)cn3)ncc2Cl)n[nH]1 [AZ23] + C[C@]1(O)C[C@@H](c2nc(-c3ccc4ccc(-c5ccccc5)nc4c3)c3c(N)nccn32)C1 [Linsitinib] (partner 1 µM)	0.632

###

System: PC-3 [JPC-3]
Assay: relative viability (nuclei count vs DMSO), 5 days (fraction); higher = more cells survive
Conditions: first compound 0.4 µM

compound	relative viability
C[C@@H]1CN(CC(=O)Nc2ccc3c(c2)Cc2cccc(-c4cc(=O)cc(N5CCOCC5)o4)c2S3)C[C@H](C)O1 + CS(=O)(=O)CCNCc1ccc(-c2ccc3ncnc(Nc4ccc(OCc5cccc(F)c5)c(Cl)c4)c3c2)o1 [Lapatinib] (partner 2 µM)	0.52
C[C@@H]1CN(CC(=O)Nc2ccc3c(c2)Cc2cccc(-c4cc(=O)cc(N5CCOCC5)o4)c2S3)C[C@H](C)O1 + NC(=O)Nc1cc(-c2cccc(F)c2)sc1C(=O)N[C@H]1CCCNC1 [AZD7762] (partner 0.2 µM)	0.796
COc1cc(N2CCC(C(N)=O)CC2)ccc1Nc1nc(N)c(Cl)c(Nc2ccccc2S(=O)(=O)C(C)C)n1 [HG-5-88-01] + O=C(c1cc(Cc2n[nH]c(=O)c3ccccc23)ccc1F)N1CCN(C(=O)C2CC2)CC1 [Olaparib] (partner 8 µM)	1.04
C[C@@H]1CN(CC(=O)Nc2ccc3c(c2)Cc2cccc(-c4cc(=O)cc(N5CCOCC5)o4)c2S3)C[C@H](C)O1 + Cc1nc(NC(=O)N2CCC[C@H]2C(N)=O)sc1-c1ccnc(C(C)(C)C(F)(F)F)c1 [Alpelisib] (partner 2 µM)	1

This collection of values is drawn from the supplement of paper PMC10307832.
